test system: CD3/IL2 stimulated PBMC cells; assay: IFNγ release from CD3/IL2 stimulated PBMC cells (assay (a)); type: cell-based; conditions: Homo sapiens, CD3/IL2 stimulation, 48 h, ELISA
pIC50: −log10 of the molar value.
Decision: pIC50 compared against 8; not below it gives criterion met, below it gives criterion not met.

| structure | assay_system | class_label |
| --- | --- | --- |
| CCc1cc(O)c(F)cc1-c1ccc2c(-c3nc4c([nH]3)CCN(C(=O)c3cnc(NCCN5CCC(O)CC5)cn3)C4)n[nH]c2c1 | CD3/IL2 stimulated PBMC cells | criterion not met |

Does the molecule CCc1cc(O)c(F)cc1-c1ccc2c(-c3nc4c([nH]3)CCN(C(=O)c3cnc(N(C)CCN(C)C(C)=O)cn3)C4)n[nH]c2c1 have recorded pIC50 that is 8 or more?
criterion not met

Is pIC50 at least 8? Consider CCc1cc(O)c(F)cc1-c1ccc2c(-c3nc4c([nH]3)CCN(C(=O)c3cnc(N5CCN(CCn6ccnc6)CC5)cn3)C4)n[nH]c2c1
criterion met

hey, is pIC50 for this one >= 8? CCc1cc(O)c(F)cc1-c1ccc2c(-c3nc4c([nH]3)CCN(C(=O)c3cnc(NCCC5(O)CCN(C)CC5)cn3)C4)n[nH]c2c1
criterion not met

Quick check, pIC50 >= 8? CCc1cc(O)c(F)cc1-c1ccc2c(-c3nc4c([nH]3)CCN(C(=O)c3cnc(N(C)Cc5ccccn5)cn3)C4)n[nH]c2c1
criterion not met

----------
experiment: Systemic pharmacokinetics and total colon tissue distribution after single oral administration in mice; format: in vivo, male C57BL/6 mice; settings: male, C57BL/6, mouse, total colon tissue, oral 10 mg/kg, total colon, 4 h, read-out: Total colon level
measurement_kind: concentration at 4 h

Report concentration at 4 h for CCc1cc(O)c(F)cc1-c1ccc2c(-c3nc4c([nH]3)CCN(C(=O)c3cnc(N(C)CCN5CCCC5=O)cn3)C4)n[nH]c2c1
7230 ng/g

----------
assay: Systemic pharmacokinetics and total colon tissue distribution after single oral administration in mice; format: in vivo, male C57BL/6 mice; conditions: male, C57BL/6, mouse, oral 10 mg/kg, plasma, 8 h, read-out: Mean plasma concentration
measurement_kind: concentration at 8 h (ng/mL)
Expressed in ng/mL, but write only the number.

Specify concentration at 8 h for CCc1cc(O)c(F)cc1-c1ccc2c(-c3nc4c([nH]3)CCN(C(=O)c3cnc(N(C)CCN5CCCC5=O)cn3)C4)n[nH]c2c1 [Example 2(k)] and stop.
4.8

----------
assay: Systemic pharmacokinetics and total colon tissue distribution after single oral administration in mice; assay type: in vivo, male C57BL/6 mice; settings: male, C57BL/6, mouse, oral 10 mg/kg, plasma, 12 h, read-out: Mean plasma concentration
measurement_kind: concentration at 12 h (ng/mL)
Give your result in ng/mL as a bare value.

Could you please provide reported concentration at 12 h for CCc1cc(O)c(F)cc1-c1ccc2c(-c3nc4c([nH]3)CCN(C(=O)c3cnc(N(C)CCN5CCCC5=O)cn3)C4)n[nH]c2c1 [Example 2(k)] ? Thanks!
1.2

----------
Consider the following molecules and their measured Cmax readings.
test: Systemic pharmacokinetics and total colon tissue distribution after single oral administration in mice; type: in vivo, male C57BL/6 mice; conditions: male, C57BL/6, mouse, oral 10 mg/kg, plasma, read-out: Cmax P (plasma)
Please reply with the bare figure in ng/mL and do not write the unit itself.

| molecule | measurement_kind | reported_result |
| --- | --- | --- |
| CCc1cc(O)c(F)cc1-c1ccc2c(-c3nc4c([nH]3)CCN(C(=O)c3cnc(N(C)CCN5CCCC5=O)cn3)C4)n[nH]c2c1 | Cmax | 4.8 |

Tell me measured Cmax for CCc1cc(O)c(F)cc1-c1ccc2c(-c3nc4c([nH]3)CCN(C(=O)c3cnc(N5CCCCC5)cn3)C4)n[nH]c2c1 [Reference Compound, reference compound] please.
114

----------
test system: Jurkat cells; assay: Cell cytotoxicity assay in Jurkat cells (assay (c)); format: cell-based, human; conditions: 24 h, propidium iodide, normalised to DMSO control
measurement_kind: % viability at 1 μg/mL (%)
Number only, in %; omit the unit.

# count of solved cases: 5
| structure | % viability at 1 μg/mL, % |
| --- | --- |
| CCc1cc(O)c(F)cc1-c1ccc2c(-c3nc4c([nH]3)CCN(C(=O)c3cnc(N5CC(CO)C5)cn3)C4)n[nH]c2c1 | 62 |
| CCc1cc(O)c(F)cc1-c1ccc2c(-c3nc4c([nH]3)CCN(C(=O)c3cnc(N5CCC[C@H]5CO)cn3)C4)n[nH]c2c1 | 56 |
| CCc1cc(O)c(F)cc1-c1ccc2c(-c3nc4c([nH]3)CCN(C(=O)c3cnc(N5CCN(CCN(C)C)CC5)cn3)C4)n[nH]c2c1 | 16 |
| CCc1cc(O)c(F)cc1-c1ccc2c(-c3nc4c([nH]3)CCN(C(=O)c3cnc(NCCOCCOCCOC)cn3)C4)n[nH]c2c1 | 88 |
| CCc1cc(O)c(F)cc1-c1ccc2c(-c3nc4c([nH]3)CCN(C(=O)c3cnc(N5CCN(CCn6ccnc6)CC5)cn3)C4)n[nH]c2c1 | 12 |

Using known records, supply % viability at 1 μg/mL for CCc1cc(O)c(F)cc1-c1ccc2c(-c3nc4c([nH]3)CCN(C(=O)c3cnc(N5C[C@H]6CN(C)C[C@H]6C5)cn3)C4)n[nH]c2c1
18

----------
In this section we review reported % viability at 1 μg/mL values for a set of compounds.
test system: Jurkat cells; experiment: Cell cytotoxicity assay in Jurkat cells (assay (c)); assay type: cell-based, human; conditions: 24 h, propidium iodide, normalised to DMSO control
# unit: % | format: bare number

| compound | assay_system | % viability at 1 μg/mL / % |
| --- | --- | --- |
| CCc1cc(O)c(F)cc1-c1ccc2c(-c3nc4c([nH]3)CCN(C(=O)c3cnc(N(C)C5CCN(C)CC5)cn3)C4)n[nH]c2c1 | Jurkat cells | 14 |
| CCc1cc(O)c(F)cc1-c1ccc2c(-c3nc4c([nH]3)CCN(C(=O)c3cnc(NCCS(C)(=O)=O)cn3)C4)n[nH]c2c1 | Jurkat cells | 94 |
| CCc1cc(O)c(F)cc1-c1ccc2c(-c3nc4c([nH]3)CCN(C(=O)c3cnc(N5CCCCC5)cn3)C4)n[nH]c2c1 [Reference Compound, reference compound] | Jurkat cells | 49 |
| CCc1cc(O)c(F)cc1-c1ccc2c(-c3nc4c([nH]3)CCN(C(=O)c3cnc(N(C)CCN(C)C(C)=O)cn3)C4)n[nH]c2c1 | Jurkat cells | 87 |
| CCc1cc(O)c(F)cc1-c1ccc2c(-c3nc4c([nH]3)CCN(C(=O)c3cnc(N(CCOC)CCOC)cn3)C4)n[nH]c2c1 | Jurkat cells | 53 |

API: the following record is the query input.
Supply % viability at 1 μg/mL measured with Jurkat cells for CCc1cc(O)c(F)cc1-c1ccc2c(-c3nc4c([nH]3)CCN(C(=O)c3cnc(N5CCN(CCO)CC5)cn3)C4)n[nH]c2c1 .
10

----------
tested on: Jurkat cells; assay: Cell cytotoxicity assay in Jurkat cells (assay (c)); assay type: cell-based, human; settings: 24 h, propidium iodide, normalised to DMSO control
measurement_kind: % viability at 1 μg/mL (%)
Kindly provide the numeric value in % only, without the unit symbol.

| compound | assay_system | % viability at 1 μg/mL, % |
| --- | --- | --- |
| CCc1cc(O)c(F)cc1-c1ccc2c(-c3nc4c([nH]3)CCN(C(=O)c3cnc(N(C)CCN5CCCC5=O)cn3)C4)n[nH]c2c1 | Jurkat cells | 93 |

In one line, give reported % viability at 1 μg/mL of the entry CCc1cc(O)c(F)cc1-c1ccc2c(-c3nc4c([nH]3)CCN(C(=O)c3cnc(N5CC[S+]([O-])CC5)cn3)C4)n[nH]c2c1 [Example 2(e)] .
96

Give me measured % viability at 1 μg/mL, please, for this compound: CCc1cc(O)c(F)cc1-c1ccc2c(-c3nc4c([nH]3)CCN(C(=O)c3cnc(N(C)CCN5CCCS5(=O)=O)cn3)C4)n[nH]c2c1
82

----------
assay: Solubility in fasted-state simulated colonic fluid (FaSSCoF) at pH 6.5; format: physicochemical; settings: 25 °C, pH 6.5, fassgf or other biorelevant, thermodynamic from solid, pH 6.5, 25° C., Run 1, read-out: pH 6.5 FaSSCoF Solubility Run 1
Form field: solubility thermodynamic at 24 h (one value per entry).
Answers without a unit are incomplete; give the number and then its unit.

Determine from records and report solubility thermodynamic at 24 h for CCc1cc(O)c(F)cc1-c1ccc2c(-c3nc4c([nH]3)CCN(C(=O)c3cnc(N5CCC[C@H]5CO)cn3)C4)n[nH]c2c1 [Example 2(h)]
30 µg/mL

Read off the recorded solubility thermodynamic at 24 h for CCc1cc(O)c(F)cc1-c1ccc2c(-c3nc4c([nH]3)CCN(C(=O)c3cnc(N(C)C5CCN(C)CC5)cn3)C4)n[nH]c2c1 [Example 1]
10 µg/mL

Return solubility thermodynamic at 24 h for the following compound: CCc1cc(O)c(F)cc1-c1ccc2c(-c3nc4c([nH]3)CCN(C(=O)c3cnc(N5CCCCC5)cn3)C4)n[nH]c2c1 [Reference Compound, reference compound]
6 µg/mL

Check the records and state solubility thermodynamic at 24 h for CCc1cc(O)c(F)cc1-c1ccc2c(-c3nc4c([nH]3)CCN(C(=O)c3cnc(N(C)CCN5CCCC5=O)cn3)C4)n[nH]c2c1 [Example 2(k)]
10 µg/mL
